- system_under_test: Perilipin-5 (Homo sapiens) + 1-acylglycerol-3-phosphate O-acyltransferase ABHD5 (Homo sapiens) (UniProt Q00G26+Q8WTS1)
- Sequence (Q00G26 whole entry, looked up): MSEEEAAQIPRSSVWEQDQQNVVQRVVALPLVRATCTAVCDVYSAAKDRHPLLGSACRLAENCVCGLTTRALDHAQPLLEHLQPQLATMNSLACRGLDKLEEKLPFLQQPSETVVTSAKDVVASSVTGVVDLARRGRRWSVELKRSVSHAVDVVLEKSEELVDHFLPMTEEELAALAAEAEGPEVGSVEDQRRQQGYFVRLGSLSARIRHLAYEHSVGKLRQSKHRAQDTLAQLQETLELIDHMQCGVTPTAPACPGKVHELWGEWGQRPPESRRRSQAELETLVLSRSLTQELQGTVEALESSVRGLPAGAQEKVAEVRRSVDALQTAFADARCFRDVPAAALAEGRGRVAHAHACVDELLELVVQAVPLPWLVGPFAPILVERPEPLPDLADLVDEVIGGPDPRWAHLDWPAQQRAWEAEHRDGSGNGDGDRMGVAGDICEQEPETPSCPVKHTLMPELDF
- Sequence (Q8WTS1 whole entry, looked up): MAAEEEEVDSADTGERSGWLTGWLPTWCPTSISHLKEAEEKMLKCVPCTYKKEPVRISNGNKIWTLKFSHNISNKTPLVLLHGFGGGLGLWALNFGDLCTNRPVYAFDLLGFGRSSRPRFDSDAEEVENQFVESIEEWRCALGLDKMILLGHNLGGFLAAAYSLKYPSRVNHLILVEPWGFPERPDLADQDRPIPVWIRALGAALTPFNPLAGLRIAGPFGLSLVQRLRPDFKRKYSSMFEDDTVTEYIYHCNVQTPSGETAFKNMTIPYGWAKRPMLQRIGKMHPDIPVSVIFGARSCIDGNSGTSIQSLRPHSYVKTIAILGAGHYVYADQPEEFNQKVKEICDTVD
- procedure_details: ABHD5-PLIN5 interaction inhibitors, primary screen, cell lysate, split luciferase complementation, luminescence (AID 602281);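 further: 0% = DMSO only wells and the 100% control is not disclosed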
- condition_details: Split G. princeps luciferase complementation, 4 h, at 4 µM
Screen size: about 360,000 compounds; about 2,900 (0.81%) were called active.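 How the source made its calls: active means inhibition above the mean inhibition across every tested compound plus 3 SD (cut at about 22% in these data); inactive means the rest.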 This excerpt belongs to a sample that is enriched for actives.
Select the matching outcome among yes (active), no (inactive)

>>> df
                                   compound  group
0       COCCNc1nnc(SCC(=O)NNC(=O)c2ccco2)s1     no
1  COc1ccccc1-n1nnnc1S(=O)(=O)Cc1ccc(Cl)cc1    yes
2  CCc1nnc(NC(=O)C2CC(=O)N(c3ccc4c(c3)OCCO4)C2)s1 (stereo not drawn)     no
3  CN(C)CCOC(=O)C(c1ccccc1)C1(O)CCCC1 (stereo not drawn)     no
4  COc1ccc(NC(=O)C2=C(C)NC(=O)NC2c2ccccc2[N+](=O)[O-])cc1 (stereo not drawn)     no

Identify the outcome logged in this assay for the compound shown: COc1ccc(C(C[N+](=O)[O-])n2nc(C)cc2C)cc1 (stereo not drawn)
yes

Status in this test for `Cc1cc(N2CCCC2=O)cc(C)c1S(N)(=O)=O` ?
no

---

- system_under_test: Perilipin-5 (Homo sapiens) + 1-acylglycerol-3-phosphate O-acyltransferase ABHD5 (Homo sapiens) (UniProt Q00G26+Q8WTS1)
- procedure_details: ABHD5-PLIN5 interaction inhibitors, primary screen, cell lysate, split luciferase complementation, luminescence (AID 602281);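 further: 0% = DMSO only wells and the 100% control is not disclosed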
- condition_details: Split G. princeps luciferase complementation, 4 h, at 4 µM
Out of some 360,000 compounds screened, about 2,900 (0.81%) were called active.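 The calls were made as follows: active = inhibition above the mean inhibition across every tested compound plus 3 SD (cut at about 22% in these data); inactive = the rest.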 The sample as a whole holds a higher share of actives than the screen did.
Give your call using only these classes: label 1 for active, label 0 for inactive

In [3]: df
Out[3]:
                              compound    group
0  CCN(CC)c1ccc(NC(=O)c2ccc(Cl)nc2)cc1  label 0

Given `CN1CCC(=O)N([C@H](CO)Cc2ccccc2)CC1` , state the outcome it received in this test.
label 0

Hello, I am checking results. What call was entered for `O=C(NNc1ccccn1)c1ccc(Cl)nc1` ?
label 1

Per the assay record, what outcome was assigned to CCCN1CCn2c3c(c4cc(Br)ccc42)CCCC31 (stereo unspecified) ?
label 0

Identify the outcome logged in this assay for the compound shown: `Brc1ccc(-c2nn[nH]n2)cc1`
label 0

Which outcome was entered for the compound COCCNC(=O)c1ccc(Cn2c(SCC(=O)NCC3CCCO3)nc3ccc(Br)cc3c2=O)cc1 (stereo unspecified) in this test?
label 0

---

- system_under_test: Perilipin-5 (Homo sapiens) + 1-acylglycerol-3-phosphate O-acyltransferase ABHD5 (Homo sapiens) (UniProt Q00G26+Q8WTS1)
- procedure_details: ABHD5-PLIN5 interaction inhibitors, primary screen, cell lysate, split luciferase complementation, luminescence (AID 602281);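 further: 0% = DMSO only wells and the 100% control is not disclosed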
- condition_details: Split G. princeps luciferase complementation, 4 h, at 4 µM, hits give high values
The campaign covered roughly 360,000 compounds. About 2,900 (0.81%) were called active. Many of the other results were omitted from the sample, so actives are more common in it than they were.
Would you kindly list inhibition for each of these molecules?
One number for each entry, in %.

Previously resolved entries follow.
                                   molecule  meas_value
0  Cc1ccc(SC(CC(=O)c2ccc(C(C)(C)C)cc2)C(=O)O)cc1 (stereo not given)        84.9
1  O=C(NNC(=S)Nc1ccccc1)c1cccc(S(=O)(=O)N2CCOCC2)c1       -0.88

Provide reported inhibition for each item, in the same order as listed.
1. Cc1ccc(CS(=O)(=O)CCC(=O)NC2CC2)cc1
2. C=CCNCCCCOc1ccccc1
3. CC1CCCC(NC(=O)COC(=O)c2ccccc2C(=O)N(C)C2CCCCC2)C1C (stereo not given)

1. 0.91
2. -2.87
3. 1.5

---

- system_under_test: Perilipin-5 (Homo sapiens) + 1-acylglycerol-3-phosphate O-acyltransferase ABHD5 (Homo sapiens) (UniProt Q00G26+Q8WTS1)
- procedure_details: ABHD5-PLIN5 interaction inhibitors, primary screen, cell lysate, split luciferase complementation, luminescence (AID 602281);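 further: 0% = DMSO only wells and the 100% control is not disclosed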
- condition_details: Split G. princeps luciferase complementation, 4 h, at 4 µM, hits give high values
Out of some 360,000 compounds screened, about 2,900 (0.81%) were called active. The entries come from a sample that favours actives as a whole.
parameter_measured: inhibition (%)
Answers are plain numbers, in %.

Could I get inhibition for every one of these entries?
1. Cc1ccc(S(=O)(=O)N(C)C)cc1NC(=O)c1n[nH]c(=O)c2ccccc12
2. O=C(CN1CCN(c2ccccc2F)CC1)c1ccc2c(c1)OCO2
3. COc1ccccc1C(=O)c1ccccc1C(=O)c1ccccc1
4. COC(=O)c1ccc(COC(=O)C2CCN(S(=O)(=O)c3c(Cl)cccc3Cl)CC2)o1
5. Cc1c(CCOC(=O)c2cc([N+](=O)[O-])ccc2Cl)sc[n+]1CCCCS(=O)(=O)[O-]
6. O=[N+]([O-])c1c(NCCO)cc(Sc2nc3ccccc3s2)c2nonc12
7. C/C(=N\NS(=O)(=O)c1ccc(Cl)cc1)c1ccc(NC(=O)c2ccco2)cc1

[5.24, 1.72, -6.91, 1.49, 7.78, 42.8, -4.17]

---

- system_under_test: Perilipin-5 (Homo sapiens) + 1-acylglycerol-3-phosphate O-acyltransferase ABHD5 (Homo sapiens) (UniProt Q00G26+Q8WTS1)
- procedure_details: ABHD5-PLIN5 interaction inhibitors, primary screen, cell lysate, split luciferase complementation, luminescence (AID 602281);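 further: 0% = DMSO only wells and the 100% control is not disclosed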
- condition_details: Split G. princeps luciferase complementation, 4 h, at 4 µM, hits give high values
About 2,900 (0.81%) of roughly 360,000 compounds were called active. Many of the other results were omitted from the sample, so actives are more common in it than they were.
parameter_measured: inhibition (%)
Give bare numbers, in %.

>>> df
                                   compound  unit_symbol  meas_value
0  CCc1ccc(-c2cc(C(=O)NN3CCN(C)CC3)c3ccccc3n2)cc1            %        11.1

// for each compound in input: emit inhibition
1. O=c1cc(O)c(-c2cccc(C(F)(F)F)c2)c(Cl)[nH]1
2. O=C(/C=C/c1ccc(OCc2c(F)cccc2Cl)cc1)N1CCOCC1
3. CCCCc1cc2c(s1)CCCC/C2=N/O

1.03
-6.95
-9.56

---

- system_under_test: Perilipin-5 (Homo sapiens) + 1-acylglycerol-3-phosphate O-acyltransferase ABHD5 (Homo sapiens) (UniProt Q00G26+Q8WTS1)
- procedure_details: ABHD5-PLIN5 interaction inhibitors, primary screen, cell lysate, split luciferase complementation, luminescence (AID 602281);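 further: 0% = DMSO only wells and the 100% control is not disclosed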
- condition_details: Split G. princeps luciferase complementation, 4 h, at 4 µM, hits give high values
Among all 360,000 compounds or so, about 2,900 (0.81%) were called active. The list comes from a sample in which actives are over-represented; it also holds close analogues and randomly drawn compounds.
parameter_measured: inhibition (%)
Numbers only, in %.

                                   compound  meas_value
0  Cc1ccc(S(=O)(=O)N(C)C)cc1NC(=O)c1ccccc1Br        -0.6
1                CN=C(c1ccccc1)c1c(C)cccc1C        4.42
2                  O=C(Cc1ccccc1Cl)N1CCOCC1         1.3

Please state, for each entry, its recorded inhibition.
1. Cc1cccc(C)c1NC(=O)N1CC(C)OC(C)C1 (configuration not stated)
2. O=C(C(Cc1ccccc1)n1cccc1)N1CCN(C2CCCCC2)CC1 (configuration not stated)
3. O=C(/C(=C/c1cccc(Cl)c1)c1nc2ccccc2[nH]1)c1ccccc1
4. CC1=CC(C)(C)Nc2ccc(OC(=O)CN3C(=O)C4CCCCC4C3=O)cc21 (configuration not stated)
5. CC(=O)Nc1ccc(C(=O)/C=C/c2ccc[nH]2)cc1
6. O=S(=O)(c1ccc2ccccc2c1)N1CCN(S(=O)(=O)N2CCOCC2)CC1
7. O=C(O)c1cnn2c(C(F)(F)F)cc(-c3ccccc3)nc12

1: 5.67; 2: 5.03; 3: 23.3; 4: 75; 5: 11.6; 6: -1.34; 7: 6.31

Batch of 4 compounds: report inhibition for each.
1. C/C(=N/N1CCN(Cc2cccc3ccccc23)CC1)c1cccnc1
2. FC(F)(F)c1cc(-c2ccco2)nc(NCc2ccc(Cl)cc2)n1
3. CCOC(=O)C(Cc1ccc(N)cc1)N1C(=O)c2ccccc2C1=O (configuration not stated)
4. COc1cccc2cc(C(C)N(CCCN3CCOCC3)C(=O)Nc3ccc(Cl)cc3)oc12 (configuration not stated)

[-14.4, -5.83, -1, 7.7]

Dear colleague, could you send me inhibition for each of the items below? Thanks.
1. CCC1(c2ccccc2)NC(=O)N(CC(=O)Nc2ccccc2C(=O)NC2CCCC2)C1=O (configuration not stated)
2. COc1cc(OC)cc(C(=O)NNC(=O)CNC(=O)c2ccc(Br)o2)c1
3. COc1ccc(OC)c(/C(C)=N\NC(=O)c2cc3cc(Cl)ccc3n2C)c1

1. -4.04
2. 1.69
3. 5.51

Below are some compounds; for each one, tell me its inhibition.
1. O=C(Cn1nnc(N2CCCCC2)n1)c1ccc(Cl)c(Cl)c1
2. CCOCN(C(=O)Cn1c(C(C)O)nc2ccccc21)c1c(C)cccc1CC (configuration not stated)
3. CC(Sc1nncs1)C(=O)NCc1ccc2c(c1)OCO2 (configuration not stated)
4. CN1CCN(C2Cc3ccc(Cl)cc3Sc3ccc(F)cc32)CC1 (configuration not stated)
5. O=C(CSc1nnc(CNC(=O)c2ccc(F)cc2)o1)Nc1ccc2c(c1)OCO2
6. CC(=O)c1ccc(N2CCN(S(=O)(=O)c3c(C)[nH]c(=O)[nH]c3=O)CC2)cc1

-2.6
-2.38
-10.2
10.5
-2.58
1.36
